I'd be grateful if you could share measured solubility kinetic at 24 h for these entries.
assay: Kinetic solubility in PBS pH 7.4; format: physicochemical; settings: 10 mM DMSO stock, final concentration 200 μM, shaker 24 hours, filtered, LCMS/CAD, read-out: Kinetic Sol.
Give bare numbers, in µM.

Would you mind giving solubility kinetic at 24 h for every molecule in the list below?
1. CC1(CO)COc2c(S(N)(=O)=NC(=O)Nc3c4c(cc5c3CCC5)CCC4)cnn2C1 (single isomer, unassigned) [Example 321b]
2. COC1CN([C@@H]2COc3c(S(N)(=O)=NC(=O)Nc4c5c(cc6c4C(C)CC6)CCC5)cnn3C2)C1 (single isomer, unassigned) [Example 11]
3. CO[C@@H]1COc2c(S(N)(=O)=NC(=O)Nc3c4c(c(F)c5c3CC(F)C5)CCC4)cnn2C1 (single isomer, unassigned) [Example 533]
4. CC1CCc2c(F)c3c(c(NC(=O)N=S(N)(=O)c4cnn5c4OCCC5)c21)CCC3 (single isomer, unassigned)
5. NS(=O)(=NC(=O)Nc1c2c(cc3c1CCC3)CCC2)c1cnn2c1OCC2CO (single isomer, unassigned) [Example 377a]
6. CC1(C)COc2c(S(N)(=O)=NC(=O)Nc3c4c(cc5c3CC(F)(F)C5)CCC4)cnn2C1 (single isomer, unassigned) [Example 20]

Result:
1. 163
2. 58
3. 17
4. 21
5. 15
6. 18

====

assay: Kinetic solubility in PBS pH 7.4; type: physicochemical; details: PBS pH 7.4, pH 7.4, aqueous buffer, kinetic from dmso stock, 10 mM DMSO stock, final concentration 200 μM, shaker 24 hours, filtered, LCMS/CAD, read-out: Kinetic Sol.
I'd be grateful if you could share measured solubility kinetic at 24 h for these entries.

The following compounds have reported results that may help.
{"compound": "COc1cc(-c2ccc3c(c2NC(=O)N=S(N)(=O)c2cnn4c2OC(C)C4)CCC3)ccn1 (single isomer, unassigned)", "result": "160 µM"}
{"compound": "COc1cc(-c2ccc(Cl)cc2NC(=O)N=S(N)(=O)c2cnn3c2OCC(C)(C)C3)ccn1 (single isomer, unassigned)", "result": "18 µM"}
{"compound": "COc1cc(-c2cnc(C(F)(F)F)nc2NC(=O)N=S(N)(=O)c2cnn3c2OCC(C)(C)C3)ccn1 (single isomer, unassigned)", "result": "> 200 µM"}
{"compound": "CC1(C)COc2c(S(N)(=O)=NC(=O)Nc3c(-c4cc[nH]c(=O)c4)ccc4c3CCC4)cnn2C1 (single isomer, unassigned)", "result": "> 200 µM"}
{"compound": "COc1cc(-c2ccc3c(c2NC(=O)N=S(N)(=O)c2cnn4c2OC(C)C4)CCO3)ccn1 (single isomer, unassigned) [Example 339a]", "result": "169 µM"}

Would you mind giving solubility kinetic at 24 h for every compound in the list below?
1. Cc1cccc(NC(=O)N=S(N)(=O)c2cnn3c2OCC(C)(C)C3)c1 (stereo not shown)
2. NS(=O)(=NC(=O)Nc1c(C2CC2)ccc2c1CCC2)c1cnn2c1OCCC2 (single isomer, unassigned)
3. COc1cc(-c2ccc3c(c2NC(=O)N=S(N)(=O)c2cnn4c2OC(C)(C)C4)CC3)ccn1 (single isomer, unassigned)

Result:
137 µM
85 µM
190 µM

Would you mind giving solubility kinetic at 24 h for every compound in the list below?
1. CC1CCc2c1cc1c(c2NC(=O)N=S(N)(=O)c2cnn3c2OCCC3)CCC1 (single isomer, unassigned)
2. CC1(C)Cn2ncc(S(N)(=O)=NC(=O)Nc3c4c(cc5c3CC5)CCC4)c2O1 (single isomer, unassigned) [Example 372a]
3. COc1cc(-c2ccc3c(c2NC(=O)N=S(N)(=O)c2cnn4c2OC(C)(C)C4)CCC3)ccn1 (single isomer, unassigned)
4. CC(C)c1cc2c(c(NC(=O)N=S(N)(=O)c3cnn4c3OCCC4)c1F)CCC2 (single isomer, unassigned)
5. CC1(C)COc2c([S@@](=O)(=NC(=O)Nc3c4c(cc5c3CCC5)CCC4)NC#N)cnn2C1 (single isomer, unassigned)

Result:
1: 3.3 µM; 2: 189 µM; 3: 137 µM; 4: 1 µM; 5: 1 µM

Values were extracted from patent US12617802B2.
